Value source: the RNAGym collection of RNA variant scans (doi:10.7554/elife.90254)

B1: LINE1-full (parent)
chain: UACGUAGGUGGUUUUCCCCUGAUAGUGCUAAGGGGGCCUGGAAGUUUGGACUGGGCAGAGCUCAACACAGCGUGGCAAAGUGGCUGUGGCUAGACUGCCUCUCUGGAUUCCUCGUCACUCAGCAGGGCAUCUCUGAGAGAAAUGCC

variants of: B1; assay: self-cleavage, relative activity (ratio to wild type); higher = more cleavage; in vitro, sequencing; the parent is a self-cleaving ribozyme
Entries and their self-cleavage
REPORTED_METRIC: self-cleavage

MUTANT_ID: A22G A31G
RECORDED_VALUE: 0.35

MUTANT_ID: C99U A124U
RECORDED_VALUE: 0.42

MUTANT_ID: U52A A67G
RECORDED_VALUE: 0.38

MUTANT_ID: C120A
RECORDED_VALUE: 1.41
